Origin of the recorded values: the Human Domainome abundance scans (Beltran et al. 2025)

B1: Homeobox protein cut-like 1, residues 548 to 629; numbered along this chain, P39880 (parent)
chain: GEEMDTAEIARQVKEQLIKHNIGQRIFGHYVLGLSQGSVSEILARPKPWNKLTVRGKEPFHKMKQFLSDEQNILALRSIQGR

Variants of: B1
Test: abundance fitness (aPCA) (normalised: wild type 0, dead -1); higher = more abundant; growth selection in yeast, the domain comes from the species named
Conditions: Homo sapiens
Consider the following variants; for each one, report its abundance fitness.

Some variants with known abundance fitness results, for comparison:
{"columns": ["Residue codes", "abundance fitness"],
 "data": [
  ["GEEMDTAEIARQVKEQLIKHNIGQRIFGHYVLGLSQFSVSEILARPKPWNKLTVRGKEPFHKMKQFLSDEQNILALRSIQGR", -0.075],
  ["GEEMDTAEIARQVKEQLIKHNIGQRIFGHYVLGLSQGSVSEILARPKPWNKLTVRGKEPFHKMKQFLSDEQNILALRFIQGR", -0.188],
  ["GEEMDTAEIARQVKEQLIKHNIGQRIFGHYVLGLSQGSVSEILARPKPENKLTVRGKEPFHKMKQFLSDEQNILALRSIQGR", -0.273],
  ["GEEMDTAEIAMQVKEQLIKHNIGQRIFGHYVLGLSQGSVSEILARPKPWNKLTVRGKEPFHKMKQFLSDEQNILALRSIQGR", -0.112]
]}

Would you mind giving abundance fitness for every variant in the list below?
1. VEEMDTAEIARQVKEQLIKHNIGQRIFGHYVLGLSQGSVSEILARPKPWNKLTVRGKEPFHKMKQFLSDEQNILALRSIQGR
2. GEEMDTAEIARQVKEQLIKHNIGQRIFGHYVLGLSQGWVSEILARPKPWNKLTVRGKEPFHKMKQFLSDEQNILALRSIQGR
3. GEKMDTAEIARQVKEQLIKHNIGQRIFGHYVLGLSQGSVSEILARPKPWNKLTVRGKEPFHKMKQFLSDEQNILALRSIQGR

[reply]
1: -0.01; 2: -0.273; 3: -0.064

Hello, I would appreciate it if you could give abundance fitness for each entry below.
1. GEEMDTAEIARQVKEQLIKHNIGQRIFGHYVLGLSQGSVSEILARPKPWNKLTVRGKEWFHKMKQFLSDEQNILALRSIQGR
2. GEEMDTAEIARQVKEQLIKHNIGQRIFGHYVLGLSAGSVSEILARPKPWNKLTVRGKEPFHKMKQFLSDEQNILALRSIQGR
3. GEEMDTAEIARQVKEQLIKHNIGQRIFGHYVLGLSQGSVSEILARPKPWNKLTVRGKETFHKMKQFLSDEQNILALRSIQGR
4. GEEMATAEIARQVKEQLIKHNIGQRIFGHYVLGLSQGSVSEILARPKPWNKLTVRGKEPFHKMKQFLSDEQNILALRSIQGR
5. GEEMDTAEIARQVKEQLIKHNIGQRIFGHYVLGLSQGSVSEILANPKPWNKLTVRGKEPFHKMKQFLSDEQNILALRSIQGR
6. GEEMDTAEIARQVKEQLIKHNIGQRIFGHYVLGLSQGSVSEIRARPKPWNKLTVRGKEPFHKMKQFLSDEQNILALRSIQGR
7. GEEMDTAEIARQVKEQLIKHNIGQRIFGHYVLGLSQTSVSEILARPKPWNKLTVRGKEPFHKMKQFLSDEQNILALRSIQGR
8. GEEMDTAEIARQVKEQLIKHNIGQRIFGHYVLGLSQGSVSEILARPKPWNKLTVRGKEPFHKMKQGLSDEQNILALRSIQGR

[reply]
1: 0.077; 2: 0.021; 3: 0.088; 4: -0.204; 5: -0.002; 6: -1; 7: 0.063; 8: -0.934

Need abundance fitness for each of these variants.
1. GEEMDTAEIARQVKEQLIKHNIGQRIFGHYVLGLSQGSVSEILARPKPWNKLTVRGKEPFHKMKQFISDEQNILALRSIQGR
2. GEEMDTAEIARQVKEQLIKHNIGQRIFGHYVLGLSQGSVSEILARPKPWNKLTVRGKEPFHKMKQFLSDEQNILALRCIQGR
3. GEEMDTAEIARQVKEQLIKHNIGQRIFGHYVLGLSQGSVSEILAFPKPWNKLTVRGKEPFHKMKQFLSDEQNILALRSIQGR
4. GEEMDTAEIARQVKEQLIKHNIGQRIFGHYVLGLSQGSVSEILARPKPWNKLTVRGKEIFHKMKQFLSDEQNILALRSIQGR
5. GEEMDTAEIARQVKEQLIKHNIGQRIFGHYVLGLSQGSVSEILARPKPWHKLTVRGKEPFHKMKQFLSDEQNILALRSIQGR

[reply]
[-0.303, -0.107, 0.008, 0.099, -0.074]

Count: 2. Required value per item: abundance fitness.
1. GEEMDTAEIARQVKLQLIKHNIGQRIFGHYVLGLSQGSVSEILARPKPWNKLTVRGKEPFHKMKQFLSDEQNILALRSIQGR
2. GEEMDMAEIARQVKEQLIKHNIGQRIFGHYVLGLSQGSVSEILARPKPWNKLTVRGKEPFHKMKQFLSDEQNILALRSIQGR

[reply]
1. -0.03
2. -1.01
